B1: F1*; a variant is named by its letters at N, in order (parent)
chain: GAGACCGCAACTGAAAAGTTGTTATCACTTGTCGNANNNNNNTTNGNNNGGNTNNNGTTCTGCACGTAGAAGCAAAAGGC

Variants of: B1
Experiment: fraction ligated after 30 min (ligated reads / total reads); higher = more ligase activity
Details: with F1*sub RNA substrate (template-directed ligation), 42 °C
Entries annotated with measured fraction ligated
value.type: fraction ligated

>  <chain>
GAGACCGCAACTGAAAAGTTGTTATCACTTGTCGTAAGAACTTTGGATGGGTTGAAGTTCTGCACGTAGAAGCAAAAGGC [TAGAACTGATGTGAA]

>  <experimental.result>
0.821

$$$$
>  <chain>
GAGACCGCAACTGAAAAGTTGTTATCACTTGTCGTAAGACACTTTGGATGGGTTTCGTTCTGCACGTAGAAGCAAAAGGC [TAGACACTGATGTTC]

>  <experimental.result>
0.0084

$$$$
>  <chain>
GAGACCGCAACTGAAAAGTTGTTATCACTTGTCGTAAGACACTTTGGATGGGTTGGGTTCTGCACGTAGAAGCAAAAGGC [TAGACACTGATGTGG]

>  <experimental.result>
0.352

$$$$
>  <chain>
GAGACCGCAACTGAAAAGTTGTTATCACTTGTCGTAAGACACTTTGGAGGGTTGAAGTTCTGCACGTAGAAGCAAAAGGC [TAGACACTGAGTGAA]

>  <experimental.result>
0.168

$$$$
>  <chain>
GAGACCGCAACTGAAAAGTTGTTATCACTTGTCGTAAGACACTTTGGATGGGTTATGTTCTGCACGTAGAAGCAAAAGGC [TAGACACTGATGTAT]

>  <experimental.result>
0.762

$$$$
>  <chain>
GAGACCGCAACTGAAAAGTTGTTATCACTTGTCGTAAGACACTTTGGATGGGTTACGTTCTGCACGTAGAAGCAAAAGGC [TAGACACTGATGTAC]

>  <experimental.result>
0.56

$$$$
>  <chain>
GAGACCGCAACTGAAAAGTTGTTATCACTTGTCGTAAGACACTTTGGATGGTTGAAGTTCTGCACGTAGAAGCAAAAGGC [TAGACACTGATTGAA]

>  <experimental.result>
0.703

$$$$
>  <chain>
GAGACCGCAACTGAAAAGTTGTTATCACTTGTCGTAAGACACTTTGGATGGGTTAGGTTCTGCACGTAGAAGCAAAAGGC [TAGACACTGATGTAG]

>  <experimental.result>
0.773

$$$$
>  <chain>
GAGACCGCAACTGAAAAGTTGTTATCACTTGTCGTAAGACACTTTGATGGGTTGAAGTTCTGCACGTAGAAGCAAAAGGC [TAGACACTATGTGAA]

>  <experimental.result>
0.782

$$$$
>  <chain>
GAGACCGCAACTGAAAAGTTGTTATCACTTGTCGTAAGACACTTTGGTGGGTTGAAGTTCTGCACGTAGAAGCAAAAGGC [TAGACACTGTGTGAA]

>  <experimental.result>
0.354

$$$$
>  <chain>
GAGACCGCAACTGAAAAGTTGTTATCACTTGTCGTAAGACACTTTGGATGGGTTCAGTTCTGCACGTAGAAGCAAAAGGC [TAGACACTGATGTCA]

>  <experimental.result>
0.792

$$$$

All values here come from the supplement of paper PMC6755084.
